Test Name: Solid-state stability test, one week, HPLC purity
Type: physicochemical
Conditions Used: Light illumination 4500 lux, 1 week
Listing of recorded HPLC purity 1 week Relative to the initial purity by entry.
Write down the value, and be sure its unit follows.

{"Compound": "CC1=Nc2c(F)cc(-c3nc(Nc4ccc(C5CCN(C)CC5)cn4)ncc3F)cc2C12CCCC2 [Free base crystal form A, reference compound]", "Test Value": "99.3%"}
{"Compound": "CC1=Nc2c(F)cc(-c3nc(Nc4ccc(C5CCN(C)CC5)cn4)ncc3F)cc2C12CCCC2.CS(=O)(=O)O [Methanesulfonate crystal form A, reference compound]", "Test Value": "98.5%"}
{"Compound": "CC1=Nc2c(F)cc(-c3nc(Nc4ccc(C5CCN(C)CC5)cn4)ncc3F)cc2C12CCCC2.O=C(O)/C=C\\C(=O)O [Maleate crystal form B]", "Test Value": "99.9%"}
{"Compound": "CC1=Nc2c(F)cc(-c3nc(Nc4ccc(C5CCN(C)CC5)cn4)ncc3F)cc2C12CCCC2.O=C(O)CCC(=O)O [Succinate crystal form A]", "Test Value": "100.0%"}
{"Compound": "CC1=Nc2c(F)cc(-c3nc(Nc4ccc(C5CCN(C)CC5)cn4)ncc3F)cc2C12CCCC2.O=C(O)/C=C/C(=O)O [Fumarate crystal form A]", "Test Value": "100.0%"}

Query block: Looking for the measured HPLC purity 1 week Relative to the initial purity of CC1=Nc2c(F)cc(-c3nc(Nc4ccc(C5CCN(C)CC5)cn4)ncc3F)cc2C12CCCC2 [Adipate crystal form A] , can you help?
Result block: 100.0%

Query block: Looking for the measured HPLC purity 1 week Relative to the initial purity of CC1=Nc2c(F)cc(-c3nc(Nc4ccc(C5CCN(C)CC5)cn4)ncc3F)cc2C12CCCC2.O=C(O)/C=C/C(=O)O [Fumarate crystal form C] , can you help?
Result block: 100.0%

Data provenance: patent US20220168302A1
